- Tested on: ZM4 (p42-0347)
- Protocol notes: Bioscreen growth of ZM4 (p42-0347) in RM with sodium and acetate ions
- Assay type: cell-based, Zymomonas mobilis
- Condition notes: ZM4 (p42-0347); RM pH 5.0 supplemented with 195 mM of the chemical, anaerobic
Measured metric: Final Cell Density (OD600 nm)
Lab book: enter the figure in OD600 nm, no units written.

Molecule | Unit name | Meas value
CC(=O)[O-].[Na+] [NaAc, sodium acetate] | OD600 nm | 0.59

In plain terms, CC(=O)[O-].[K+] [Kac, potassium acetate] has a documented Final Cell Density of 0.34

In plain terms, [Cl-].[Na+] [NaCl, sodium chloride] has a documented Final Cell Density of 0.84

In plain terms, CC(=O)O.N [NH4OAc, ammonium acetate] has a documented Final Cell Density of 0.37

Where do these numbers come from? They come from patent US8790902B2.
